test system: Leishmania donovani; assay: Antileishmanial activity against Leishmania donovani axenic amastigotes; format: functional, organism-based
resultType: pIC50
pIC50 is a log-scale quantity: -log10 of the concentration expressed in molar.

stdin: // pIC50 lookup, key: "N=C(N)c1ccc(-c2ccc(-c3ccc(C(=N)N)cc3)c(F)c2)cc1"
stdout: 6.47

stdin: // pIC50 lookup, key: "N=C(N)c1ccc(-c2ccc(-c3ccc(C(=N)N)cc3)cc2)cc1"
stdout: 6.57

stdin: // pIC50 lookup, key: "N=C(N)c1ccc(-c2ccc(-c3ccc(C(=N)N)cn3)cc2)cc1"
stdout: 5.85

stdin: // pIC50 lookup, key: "N=C(N)c1ccc(-c2cnc(-c3ccc(C(=N)N)nc3)nc2)cn1"
stdout: 5.74

stdin: // pIC50 lookup, key: "N=C(N)c1ccc(-c2ccc(-c3cnc(C(=N)N)nc3)cn2)cc1"
stdout: 5.59

stdin: // pIC50 lookup, key: "N=C(N)c1ccc(-c2ccc(-c3ccc(C(=N)N)cn3)cn2)cc1"
stdout: 5.17

stdin: // pIC50 lookup, key: "N=C(N)c1ccc(-c2ccc(-c3ccc(C(=N)N)cc3)nn2)cc1"
stdout: 6.14

stdin: // pIC50 lookup, key: "N=C(N)c1ncc(-c2ccc(-c3cnc(C(=N)N)nc3)cc2)cn1"
stdout: 5.77

stdin: // pIC50 lookup, key: "N=C(N)c1ccc(-c2cnc(-c3ccc(C(=N)N)cc3)nc2)cc1"
stdout: 5.96

stdin: // pIC50 lookup, key: "N=C(N)c1ccc(-c2ccc(-c3ccc(C(=N)N)nc3)cc2)cc1"
stdout: 7.08

stdin: // pIC50 lookup, key: "N=C(N)c1ccc(-c2ccc(-c3ccc(C(=N)N)cc3)nc2)cc1"
stdout: 6.09

stdin: // pIC50 lookup, key: "N=C(N)c1ccc(-c2ccc(-c3ccc(C(=N)N)nc3)cn2)cc1"
stdout: 6.29

stdin: // pIC50 lookup, key: "N=C(N)c1ccc(-c2ccc(-c3cnc(C(=N)N)cn3)cn2)cc1"
stdout: 4.80

stdin: // pIC50 lookup, key: "N=C(N)c1ccc(-c2ccc(-c3ccc(C(=N)N)nc3)cc2)cn1"
stdout: 7.20

stdin: // pIC50 lookup, key: "N=C(N)c1ccc(-c2ccc(-c3cnc(C(=N)N)nc3)cc2)cc1"
stdout: 6.70

stdin: // pIC50 lookup, key: "N=C(N)c1ccc(-c2cnc(-c3ccc(C(=N)N)cc3)cn2)cc1"
stdout: 6.25
